Attribute: Papp at 2 h, 1 μM
Biological target: MDR1 (P-gp) (Homo sapiens)
Construct: expressed in transfected cells; host or cells: LLC-PK1
Sequence (P08183 whole entry): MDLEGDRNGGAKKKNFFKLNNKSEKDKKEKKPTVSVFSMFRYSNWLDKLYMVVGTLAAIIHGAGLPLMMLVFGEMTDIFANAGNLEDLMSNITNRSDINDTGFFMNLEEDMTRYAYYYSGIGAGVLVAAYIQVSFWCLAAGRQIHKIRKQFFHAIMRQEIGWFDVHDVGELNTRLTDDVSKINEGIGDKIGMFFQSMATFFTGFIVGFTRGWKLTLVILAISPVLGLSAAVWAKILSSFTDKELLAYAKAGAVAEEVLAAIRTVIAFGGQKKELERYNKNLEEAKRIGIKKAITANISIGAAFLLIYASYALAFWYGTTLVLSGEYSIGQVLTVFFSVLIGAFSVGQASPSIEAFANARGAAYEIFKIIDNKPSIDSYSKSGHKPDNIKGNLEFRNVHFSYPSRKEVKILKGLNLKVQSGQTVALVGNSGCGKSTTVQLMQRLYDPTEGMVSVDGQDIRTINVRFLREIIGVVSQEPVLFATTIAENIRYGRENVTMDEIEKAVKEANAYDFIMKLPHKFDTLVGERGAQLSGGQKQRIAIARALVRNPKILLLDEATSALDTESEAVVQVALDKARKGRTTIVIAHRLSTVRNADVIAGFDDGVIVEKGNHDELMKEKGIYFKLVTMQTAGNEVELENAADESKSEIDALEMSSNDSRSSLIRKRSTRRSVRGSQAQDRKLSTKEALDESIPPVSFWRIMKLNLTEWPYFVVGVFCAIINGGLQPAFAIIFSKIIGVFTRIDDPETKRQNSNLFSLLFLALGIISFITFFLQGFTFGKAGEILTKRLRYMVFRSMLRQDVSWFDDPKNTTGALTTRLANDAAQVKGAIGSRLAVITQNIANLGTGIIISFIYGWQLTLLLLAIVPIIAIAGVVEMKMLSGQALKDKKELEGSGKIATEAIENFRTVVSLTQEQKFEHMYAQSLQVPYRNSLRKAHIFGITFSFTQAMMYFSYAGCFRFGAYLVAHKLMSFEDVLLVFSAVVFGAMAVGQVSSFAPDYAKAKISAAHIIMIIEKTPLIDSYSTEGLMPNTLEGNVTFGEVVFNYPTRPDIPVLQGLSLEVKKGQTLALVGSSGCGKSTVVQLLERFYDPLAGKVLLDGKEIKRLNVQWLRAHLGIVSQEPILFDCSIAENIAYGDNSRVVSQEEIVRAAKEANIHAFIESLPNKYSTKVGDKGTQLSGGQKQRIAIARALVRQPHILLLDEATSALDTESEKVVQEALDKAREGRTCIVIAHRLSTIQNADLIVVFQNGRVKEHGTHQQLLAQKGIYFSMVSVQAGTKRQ
Assay: MDR1 LLC-PK1 permeability assay
Type: in vitro ADME
Settings: pig; permeability coefficient (Papp), MDR1 transfected LLC-PK1 cells
Quantity kind: Papp at 2 h, 1 μM (×10⁻⁶ cm/s)

# Compound, Relation symbol, Experimental result
data = [
    ("COc1cc2nccc(Oc3ccc(NC(=O)c4cn(C(C)C)cc(-c5ccc(F)cc5)c4=O)cn3)c2cc1OC [Example 58]", "=", 10),
    ("COc1cc2nccc(Oc3ccc(NC(=O)c4cn(C(C)C)cc(-c5ccc(F)cc5OC)c4=O)nc3)c2cc1OC [Example 32]", "=", 14),
    ("COc1cc2nccc(Oc3ccc(NC(=O)c4cn(CCN(C)C)cc(-c5ccc(F)cc5F)c4=O)nc3)c2cc1OC [Example 44]", "=", 2),
    ("CC(C)n1cc(C(=O)Nc2ccc(Oc3ccnc4cc(OC(F)(F)F)ccc34)cn2)c(=O)c(-c2ccc(F)cc2)c1 [Example 50]", "<", 1),
    ("COc1cc2nccc(Oc3ccc(NC(=O)c4cn(CC(=O)N(C)C)cc(-c5ccc(F)cc5)c4=O)nc3)c2cc1OC [Example 23]", "=", 6),
    ("COc1cc2nccc(Oc3ccc(NC(=O)c4c[nH]cc(-c5ccc(F)cc5)c4=O)nc3)c2cc1OC [Example 26]", "=", 3),
    ("CCC(CC)n1cc(C(=O)Nc2ccc(Oc3ccnc4cc(OC)c(OC)cc34)cn2)c(=O)c(-c2ccc(F)cc2F)c1 [Example 16]", "=", 4),
    ("COc1cc2nccc(Oc3ccc(NC(=O)c4cn(C(C)C)cc(-c5ccc(F)cc5F)c4=O)nc3)c2cc1OC [Example 4]", "=", 10),
    ("COc1ccc2nccc(Oc3ccc(NC(=O)c4cn(C)cc(-c5ccc(F)cc5)c4=O)nc3)c2c1 [Example 41]", "=", 7),
    ("COc1cc2nccc(Oc3ccc(NC(=O)c4cn(C(C)C)cc(-c5ccc(Cl)cc5)c4=O)nc3)c2cc1OC [Example 5]", "=", 5),
    ("CCOc1ccc2c(Oc3ccc(NC(=O)c4cn(C(C)C)cc(-c5ccc(F)cc5)c4=O)nc3)ccnc2c1 [Example 52]", "=", 2),
    ("COc1cc2nccc(Oc3ccc(NC(=O)c4cn(C(C)C)cc(-c5ccc(F)cc5C)c4=O)nc3)c2cc1OC [Example 19]", "=", 11),
    ("COc1cc2nccc(Oc3ccc(NC(=O)c4cn(C(C)C)c(C)c(-c5ccc(F)cc5)c4=O)nc3)c2cc1OC [Example 27]", "=", 16),
    ("COc1cc2nccc(Oc3ccc(NC(=O)c4cn(CC(=O)N5CCCC5)cc(-c5ccc(F)cc5F)c4=O)nc3)c2cc1OC [Example 14]", "=", 10),
    ("COc1cc2nccc(Oc3ccc(NC(=O)c4cn(CCC(C)C)cc(-c5ccc(F)cc5)c4=O)nc3)c2cc1OC [Example 34]", "<", 1),
    ("COc1cc2nccc(Oc3ccc(NC(=O)c4cn(C)cc(-c5ccc(F)cc5)c4=O)nc3)c2cc1OC [Example 2]", "=", 15),
    ("COCCn1cc(C(=O)Nc2ccc(Oc3ccnc4cc(OC)c(OC)cc34)cn2)c(=O)c(-c2ccc(F)cc2)c1 [Example 7]", "=", 11),
    ("COc1cc2nccc(Oc3ccc(NC(=O)c4cn(CCN(C)C)cc(-c5ccc(F)cc5)c4=O)nc3)c2cc1OC [Example 46]", "=", 2),
    ("CCCC(CCC)n1cc(C(=O)Nc2ccc(Oc3ccnc4cc(OC)c(OC)cc34)cn2)c(=O)c(-c2ccc(F)cc2F)c1 [Example 17]", "<", 1),
    ("COc1cc2nccc(Oc3cnc(NC(=O)c4cn(C(C)C)c(C)c(-c5ccc(F)cc5)c4=O)nc3)c2cc1OC [Example 55]", "=", 8),
    ("COc1cc2nccc(Oc3ccc(NC(=O)c4cn(CC(C)(C)O)cc(-c5ccc(F)cc5)c4=O)nc3)c2cc1OC [Example 9]", "=", 14),
    ("COc1cc2nccc(Oc3ccc(NC(=O)c4cn(CC5CCOCC5)cc(-c5ccc(F)cc5)c4=O)nc3)c2cc1OC [Example 8]", "=", 9),
    ("CNC(=O)Cn1cc(C(=O)Nc2ccc(Oc3ccnc4cc(OC)c(OC)cc34)cn2)c(=O)c(-c2ccc(F)cc2)c1 [Example 22]", "=", 2),
    ("COc1cc2c(Oc3ccc(NC(=O)c4cn(C(C)C)c(C)c(-c5ccc(F)cc5)c4=O)nc3)ccnc2cc1F [Example 48]", "=", 15),
    ("COc1cc2nccc(Oc3ccc(NC(=O)c4cn(C)c(C(C)C)c(-c5ccc(F)cc5)c4=O)nc3)c2cc1OC [Example 45]", "=", 5),
    ("COc1cc(-c2cn(C(C)C)cc(C(=O)Nc3ccc(Oc4ccnc5cc(OC)c(OC)cc45)cn3)c2=O)ccc1F [Example 20]", "=", 9),
    ("CCc1c(-c2ccc(F)cc2)c(=O)c(C(=O)Nc2ccc(Oc3ccnc4cc(OC)c(OC)cc34)cn2)cn1C(C)C [Example 29]", "=", 10),
    ("COc1cc2nc(C)cc(Oc3ccc(NC(=O)c4cn(C(C)C)cc(-c5ccc(F)cc5)c4=O)nc3)c2cc1OC [Example 53]", "=", 5),
]
